- Tested on: production of human TNF-α by PBMC in response to LPS
- assay.protocol: TNF-α assay (LPS-stimulated PBMC, sandwich ELISA)
- Format: cell-based
- stated.conditions: Homo sapiens, PBMC; LPS 1 μg/ml, 72 hours; read-out: TNF α
- Description: Peripheral blood mononuclear cells (herein referred as PBMC), in response to stimulation by lipopolysaccharide (hereinafter LPS), a gram-negative bacterial endotoxin, produce various […], in particular human TNF-α. Inhibition of the activation of PBMC can therefore be measured by the level of suppression of the production of TNF-α by PBMC in response to stimulation by LPS. […]
pIC50: −log10 of the molar value.
Parameter pIC50: see the listing below.
parameter: pIC50

compound="COc1ccc(-c2ccc3nc(N)nc(N4CCOCC4)c3n2)cc1C [Example 163]" tested_on="production of human TNF-α by PBMC in response to LPS" parameter=pIC50 measured_result=5.19
compound="Nc1nc(N2CCOCC2)c2nc(-c3ccc(F)c(F)c3)ccc2n1 [Example 243]" tested_on="production of human TNF-α by PBMC in response to LPS" parameter=pIC50 measured_result=5.22
compound="COc1ccc(-c2ccc3nc(N)nc(NC4CCCN(C(=O)OCc5ccccc5)C4)c3n2)cc1OC (centres unmarked) [Example 258]" tested_on="production of human TNF-α by PBMC in response to LPS" parameter=pIC50 measured_result=6.52
compound="Nc1nc(N2CCN(C(=O)COc3ccc(Cl)cc3)CC2)c2nc(-c3ccc4c(c3)OCO4)ccc2n1 [Example 193]" tested_on="production of human TNF-α by PBMC in response to LPS" parameter=pIC50 measured_result=5.24
compound="Nc1nc(N2CCN(CC(=O)Nc3nccs3)CC2)c2nc(-c3ccc4c(c3)OCCO4)ccc2n1 [Example 201]" tested_on="production of human TNF-α by PBMC in response to LPS" parameter=pIC50 measured_result=5.47
compound="COc1ccc(-c2ccc3nc(N)nc(N4CCN(C(=O)Nc5cccc(C)c5)CC4)c3n2)cc1OC [Example 42]" tested_on="production of human TNF-α by PBMC in response to LPS" parameter=pIC50 measured_result=7.22
compound="COc1ccc(-c2ccc3nc(N)nc(NCC(=O)N4CCN(C)CC4)c3n2)cc1OC [Example 276]" tested_on="production of human TNF-α by PBMC in response to LPS" parameter=pIC50 measured_result=6.22
compound="COc1ccc(-c2ccc3nc(N)nc(N4CCN(CC(=O)N5CCOCC5)CC4)c3c2)cc1OC [Example 275]" tested_on="production of human TNF-α by PBMC in response to LPS" parameter=pIC50 measured_result=7.01
compound="COc1ccc(-c2ccc3ncnc(N4CCN(C(=O)Nc5cccc(Cl)c5)CC4)c3n2)cc1OCC1CC1 [Example 215]" tested_on="production of human TNF-α by PBMC in response to LPS" parameter=pIC50 measured_result=6.10
compound="CCOC(=O)C1CCN(c2nc(N)nc3ccc(-c4ccc(OC)c(OC)c4)nc23)CC1 [Example 26]" tested_on="production of human TNF-α by PBMC in response to LPS" parameter=pIC50 measured_result=7.22
compound="CC(=O)N1CCN(c2nc(N)nc3ccc(-c4ccc5c(c4)OCCO5)nc23)CC1 [Example 199]" tested_on="production of human TNF-α by PBMC in response to LPS" parameter=pIC50 measured_result=5.54
compound="COc1ccc(-c2ccc3nc(N)nc(N4CCOCC4)c3n2)cc1OC [Example 41]" tested_on="production of human TNF-α by PBMC in response to LPS" parameter=pIC50 measured_result=7.52
compound="COc1ccc(-c2ccc3nc(N)nc(NCCNC(=O)Nc4cccc(C)c4)c3n2)cc1OC [Example 261]" tested_on="production of human TNF-α by PBMC in response to LPS" parameter=pIC50 measured_result=6.10
compound="COc1ccc(-c2ccc3nc(N)nc(NCC(=O)N4CCN(Cc5ccccc5)CC4)c3n2)cc1OC [Example 271]" tested_on="production of human TNF-α by PBMC in response to LPS" parameter=pIC50 measured_result=6.30
compound="COc1ccc(-c2ccc3nc(N)nc(N4CC[C@@H](NC(=O)COc5ccc(Cl)cc5)C4)c3n2)cc1OC [Example 267]" tested_on="production of human TNF-α by PBMC in response to LPS" parameter=pIC50 measured_result=5.60
compound="Cc1cc(-c2ccc3nc(N)nc(N4CCOCC4)c3n2)ccc1F [Example 244]" tested_on="production of human TNF-α by PBMC in response to LPS" parameter=pIC50 measured_result=5.14
compound="COc1ccc(-c2ccc3nc(N)nc(N4CCN(C)CC4)c3n2)cc1OC [Example 31]" tested_on="production of human TNF-α by PBMC in response to LPS" parameter=pIC50 measured_result=6.10
